# METHOD_DESCRIPTION: Oral bioavailability in rat at 10 mg/kg
# Format: ADME, organism-based
# MEASUREMENT_PARAMETERS: in vivo
EXPERIMENTAL_ENDPOINT: bioavailability (%)
Numbers only, in %.

# molecule `O=C1NC(=O)[C@](CNC(=O)[C@@H](Cc2ccc(C(F)(F)F)cc2)C2CC2)(C2CC2)N1` ; its bioavailability = 100

====

# METHOD_DESCRIPTION: Clearance in rat at 1 mg/kg, iv
# Format: ADME, organism-based
# MEASUREMENT_PARAMETERS: in vivo
EXPERIMENTAL_ENDPOINT: clearance (mL/min/kg)
Answers are plain numbers, in mL/min/kg.

The compound identified as `O=C1NC(=O)[C@](CNC(=O)[C@@H](Cc2ccc(C(F)(F)F)cc2)C2CC2)(C2CC2)N1` registered its clearance at 33

====

# METHOD_DESCRIPTION: Half life in rat at 10 mg/kg, po
# Assay type: ADME, organism-based
# MEASUREMENT_PARAMETERS: in vivo
EXPERIMENTAL_ENDPOINT: half-life
I'd appreciate it if you wrote the number followed by its unit.

# compound `O=C1NC(=O)[C@](CNC(=O)[C@@H](Cc2ccc(C(F)(F)F)cc2)C2CC2)(C2CC2)N1` ; its half-life = 2.6 h

====

# TARGET_ENTITY: 72 kDa type IV collagenase (Homo sapiens, UniProt P08253)
# Sequence (P08253 whole entry): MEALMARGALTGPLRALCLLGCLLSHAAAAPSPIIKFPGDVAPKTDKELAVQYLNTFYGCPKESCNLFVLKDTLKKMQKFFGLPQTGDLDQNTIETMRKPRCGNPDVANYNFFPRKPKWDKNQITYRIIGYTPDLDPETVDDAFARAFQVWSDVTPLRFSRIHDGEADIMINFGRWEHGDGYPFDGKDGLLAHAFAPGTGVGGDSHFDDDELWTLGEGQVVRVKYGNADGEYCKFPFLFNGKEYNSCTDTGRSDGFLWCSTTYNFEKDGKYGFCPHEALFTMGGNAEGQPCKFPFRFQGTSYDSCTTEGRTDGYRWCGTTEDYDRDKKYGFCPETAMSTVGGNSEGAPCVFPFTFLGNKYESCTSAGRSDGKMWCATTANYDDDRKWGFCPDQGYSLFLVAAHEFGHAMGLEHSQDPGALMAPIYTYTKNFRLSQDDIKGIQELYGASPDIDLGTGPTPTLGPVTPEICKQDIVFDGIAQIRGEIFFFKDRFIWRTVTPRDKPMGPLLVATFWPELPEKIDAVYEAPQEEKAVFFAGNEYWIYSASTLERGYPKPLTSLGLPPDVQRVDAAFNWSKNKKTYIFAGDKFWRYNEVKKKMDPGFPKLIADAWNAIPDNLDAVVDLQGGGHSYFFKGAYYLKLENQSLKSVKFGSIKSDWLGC
Kindly supply the reported IC50 values for the records listed here.
Give bare numbers, in nM.

{"QUERY_SMILES": "C[C@@H](Cc1ccc(C(F)(F)F)cc1)C(=O)NC[C@@]1(C2CC2)NC(=O)NC1=O", "UNIT_INFO": "nM", "READING": 280}

# context switch: different molecule, same IC50
For `CC[C@H](Cc1ccc(C(F)(F)F)cc1)C(=O)NC[C@@]1(C2CC2)NC(=O)NC1=O` the molecule record lists IC50 as 3000

====

# METHOD_DESCRIPTION: Cmax in rat at 1 mg/kg, iv
# Type: ADME, organism-based
# Set-up: dose 1 mg/kg, route intravenous
# MEASUREMENT_PARAMETERS: in vivo
EXPERIMENTAL_ENDPOINT: Cmax (nM)
Give bare numbers, in nM.

GET /value?item= `O=C1NC(=O)[C@](CNC(=O)[C@@H](Cc2ccc(C(F)(F)F)cc2)C2CC2)(C2CC2)N1` &field=Cmax returns 1600

====

# METHOD_DESCRIPTION: Plasma concentration in rat at 1 mg/kg, iv measured at 12 hrs post dose
# Format: ADME, organism-based
EXPERIMENTAL_ENDPOINT: concentration at 12 h

The compound `O=C1NC(=O)[C@](CNC(=O)[C@@H](Cc2ccc(C(F)(F)F)cc2)C2CC2)(C2CC2)N1` showed concentration at 12 h equal to < 5 nM

====

# METHOD_DESCRIPTION: Tmax in rat at 10 mg/kg, po
# Type: ADME, organism-based
# MEASUREMENT_PARAMETERS: in vivo
EXPERIMENTAL_ENDPOINT: Tmax (min)
Give bare numbers, in min.

According to the records, this compound `O=C1NC(=O)[C@](CNC(=O)[C@@H](Cc2ccc(C(F)(F)F)cc2)C2CC2)(C2CC2)N1` displays Tmax of 30
